Ref: a melting point compilation (Tetko et al.; mined from patent text by program, amines drawn as free bases though some values may be those of a salt)

melting point values, listed per item
Measured metric: melting point

INSERT INTO assay_data (mol, result) VALUES
  ('Cc1ccc(O)c2c1N(Cc1ccccc1)C(=O)C2(C)C', '128 to 129 °C'),
  ('COc1ccc(Cn2ncc(N3CCOCC3)c(C=NO)c2=O)cc1', '166 to 168 °C'),
  ('COc1c(-c2ccc3cc(NS(C)(=O)=O)ccc3c2)cc(N2CCCC2=O)cc1C(C)(C)C', '229 to 230 °C'),
  ('C/C(C=O)=C\COc1cccc(O)c1', '136 to 138 °C'),
  ('O=C(O)Cc1cc(C(=O)c2cccc(Cl)c2)ccc1O', '186 °C'),
  ('CN(C)S(=O)(=O)c1cc(C(=O)CBr)ccc1Cl', '98 °C'),
  ('CCOC(=O)c1sc(NC(=O)c2ccc(C)cc2)nc1C(F)(F)C(F)(F)F', '202 to 203 °C'),
  ('COc1ccc2[nH]c(SCc3ncc(C)c(N4CCCC4)c3Cl)nc2c1', '152 to 158 °C'),
  ('Cn1cc(-c2cc(-c3cnc4[nH]ccc4c3)ccn2)n(-c2ccc(C(C)(C)C(N)=O)cc2)c1=O', '299 °C'),
  ('CCOCC(=O)c1cc(C(C)(C)C)c(O)c(C(C)(C)C)c1', '73 to 75 °C');
